Test system: Bacopa monnieri
protocol-notes: Toxicity against Bacopa monnieri assessed as number of shoots at 50 ug/ml after 15 days by Bacopa sensor test (reference value: 2)
Format: organism-based
measurement-context: in vivo, 360 h
measured-property: Activity
Please state the value as a number alone, without comment.

Worked set:
COC(=O)C1=CO[C@@H](O[C@@H]2O[C@H](COC(c3ccccc3)(c3ccccc3)c3ccccc3)[C@@H](O)[C@H](O)[C@H]2O)[C@@H]2[C@@H](C)[C@@H](O)C[C@H]12 [6'-O-TRITYL LOGANIN] : 2
COC(=O)C1=CO[C@@H](O[C@@H]2O[C@H](COC(=O)C=C(C)C)[C@@H](OC(C)=O)[C@H](OC(C)=O)[C@H]2OC(C)=O)[C@@H]2[C@@H](C)[C@@H](OC(C)=O)C[C@H]12 : 2
COc1cccc2c1C(=O)c1c(O)c3c(c(O)c1C2=O)C[C@@](O)(C(=O)CO)C[C@@H]3O[C@H]1C[C@H](N)[C@H](O)[C@H](C)O1 [DOXORUBICIN] : 1

Please report Activity for the following molecule: COC(=O)C1=CO[C@@H](O[C@@H]2O[C@H](CO)[C@@H](O)[C@H](O)[C@H]2O)[C@@H]2[C@@H](C)[C@@H](O)C[C@H]12 [LOGANIN]
2

----------
Tested on: Bacopa monnieri
protocol-notes: Toxicity against Bacopa monnieri assessed as change in leaf colour at 50 ug/ml after 15 days by Bacopa sensor test
Type: organism-based
measurement-context: in vivo, 360 h
measured-property: Activity

COC(=O)C1=CO[C@@H](O[C@@H]2O[C@H](COC(=O)c3cc(OC)c(OC)c(OC)c3)[C@@H](OC(C)=O)[C@H](OC(C)=O)[C@H]2OC(C)=O)[C@@H]2[C@@H](C)[C@@H](OC(C)=O)C[C@H]12 : Non-toxic
COC(=O)C1=CO[C@@H](O[C@@H]2O[C@H](CO)[C@@H](O)[C@H](O)[C@H]2O)[C@@H]2[C@@H](C)[C@@H](O)C[C@H]12 : Non-toxic
COC(=O)C1=CO[C@@H](O[C@@H]2O[C@H](COC(=O)C=C(C)C)[C@@H](OC(C)=O)[C@H](OC(C)=O)[C@H]2OC(C)=O)[C@@H]2[C@@H](C)[C@@H](OC(C)=O)C[C@H]12 : Non-toxic
COc1cccc2c1C(=O)c1c(O)c3c(c(O)c1C2=O)C[C@@](O)(C(=O)CO)C[C@@H]3O[C@H]1C[C@H](N)[C@H](O)[C@H](C)O1 : Toxic

Lab note: record Activity of CC[C@]1(O)C[C@@H]2CN(CCc3c([nH]c4ccccc34)[C@@](C(=O)OC)(c3cc4c(cc3OC)N(C)[C@H]3[C@@](O)(C(=O)OC)[C@H](OC(C)=O)[C@]5(CC)C=CCN6CC[C@]43[C@@H]65)C2)C1 tested on Bacopa monnieri.
Non-toxic

----------
System: Bacopa monnieri
protocol-notes: Toxicity against Bacopa monnieri assessed as number of roots at 50 ug/ml after 15 days by Bacopa sensor test (reference value: 2)
Type: organism-based
measurement-context: in vivo, 360 h
Here, each record is paired with measured Activity data.
Please state the value as a number alone, without comment.

Worked set:
CCCCCCCCCCCC(=O)OC[C@H]1O[C@@H](O[C@@H]2OC=C(C(=O)OC)[C@H]3C[C@H](OC(C)=O)[C@H](C)[C@@H]23)[C@H](OC(C)=O)[C@@H](OC(C)=O)[C@@H]1OC(C)=O : 3
CC[C@]1(O)C[C@@H]2CN(CCc3c([nH]c4ccccc34)[C@@](C(=O)OC)(c3cc4c(cc3OC)N(C)[C@H]3[C@@](O)(C(=O)OC)[C@H](OC(C)=O)[C@]5(CC)C=CCN6CC[C@]43[C@@H]65)C2)C1 [VINBLASTINE] : 2

Please report Activity for the following compound: COC(=O)C1=CO[C@@H](O[C@@H]2O[C@H](COC(=O)c3cccc([N+](=O)[O-])c3)[C@@H](OC(C)=O)[C@H](OC(C)=O)[C@H]2OC(C)=O)[C@@H]2[C@@H](C)[C@@H](OC(C)=O)C[C@H]12
2

Please report Activity for the following compound: COc1cccc2c1C(=O)c1c(O)c3c(c(O)c1C2=O)C[C@@](O)(C(=O)CO)C[C@@H]3O[C@H]1C[C@H](N)[C@H](O)[C@H](C)O1 [DOXORUBICIN]
0

Please report Activity for the following compound: COC(=O)C1=CO[C@@H](O[C@@H]2O[C@H](COC(=O)c3cc(OC)c(OC)c(OC)c3)[C@@H](OC(C)=O)[C@H](OC(C)=O)[C@H]2OC(C)=O)[C@@H]2[C@@H](C)[C@@H](OC(C)=O)C[C@H]12
2
